We begin with a simple list: items and their reported Acid Stability, percent remaining, 24 hrs.
EXPERIMENT_SUMMARY: Chemical stability: acid stability in 0.1N HCl at 40° C.
Type: physicochemical
TEST_CONDITIONS: 24 hrs
OUTCOME_MEASURE: Acid Stability, percent remaining, 24 hrs

MOLECULE	RESULT
Cc1cc2c(c(C)c1C(F)(F)F)N(CC1CCC(CC(=O)O)CC1)CCC[C@@H]2N(Cc1cc(C(F)(F)F)cc(C(F)(F)F)c1)c1nnn(C)n1 (stereo partly shown) [Compound 15, reference compound]	99.1%
Cc1cc2c(cc1C(F)(F)F)N(C[C@H]1CC[C@H](CC(=O)O)CC1)CCC[C@@H]2N(Cc1cc(C(F)(F)F)cc(C(F)(F)F)c1)c1nnn(C)n1	0%
Cc1cc(C)c2c(c1)[C@@H](N(Cc1cc(C(F)(F)F)cc(C(F)(F)F)c1)c1nnn(C)n1)CCCN2C[C@H]1CC[C@H](C(=O)O)CC1	91.3%
Cc1cc2c(cc1C(F)(F)F)N(Cc1ccc(C(=O)O)cc1)CCC[C@@H]2N(Cc1cc(C(F)(F)F)cc(C(F)(F)F)c1)c1nnn(C)n1	13.4%
